Test system: SRS-A
Assay: Anti-SRS-A action (SRS-A induced shrinkage of guinea pig ileus)
Design: species or system guinea pig (Hartley strain male)
Settings: 10^-6 M, treated five minutes before SRS-A (20 units), 5 min, 1 µM

{"columns": ["molecule", "SRS-A Inhibition Ratio % 10^-6 M [%]"],
 "data": [
  ["CCCCN(CC)C(=O)c1cccc2c(=O)c(C)c(-c3ccc(C)cc3C)oc12 [Example 43]", 68.1],
  ["CCN(CC)C(=O)c1cccc2c(=O)c(C)c(-c3ccc(Cl)cc3Cl)oc12 [Example 81]", 57.1],
  ["CCCCN(CC)C(=O)c1cccc2c(=O)c(C)c(-c3ccc(C(C)C)cc3)oc12 [Example 50]", 100],
  ["CCOC(=O)c1cccc2c(=O)c(C)c(-c3ccc(C)cc3C)oc12 [Example 40]", 73.9],
  ["CCCCCc1ccc(-c2oc3c(C(=O)N(CC)CC)cccc3c(=O)c2C)cc1 [Example 60]", 100],
  ["CCOC(=O)c1cccc2c(=O)c(C)c(-c3ccc(CC)cc3)oc12 [Example 45]", 52.2],
  ["Cc1c(-c2ccccc2OC(C)C)oc2c(C(=O)O)cccc2c1=O [Example 20]", 38.5],
  ["CCOC(=O)c1cccc2c(=O)c(C)c(-c3cc(Cl)ccc3Cl)oc12 [Example 77]", 67.4],
  ["CCN(CC)C(=O)c1cccc2c(=O)c(C)c(-c3ccc(OC)cc3OC)oc12 [Example 28]", 63.2]
]}

Data provenance: patent US4594345A
